Exercise: for every item that follows, state its recorded hERG current change (%, negative = inhibition) at 10uM.
target: human ether-à-go-go-related gene (hERG) potassium channel (human);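 note: peak tail current of the secondary pulse compared with the same well before compound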
assayOverview: primary screen, population patch clamp on CHO cells stably expressing hERG; higher = less effect of the substance
Out of some 310,000 compounds screened, about 14,000 (4.5%) showed an effect of 50% or more. Effects have a minus sign here. The entries come from a sample that favours strong results as a whole.
Give bare numbers, in %.

Below, 3 compounds whose answers are already recorded.
Record summary for CCN(CC(=O)NCc1ccc(F)cc1)C(=O)C(C)Oc1cccc(Cl)c1 (stereo not drawn) : reported hERG current change (%, negative = inhibition) at 10uM = -54.4

`Cc1ccc(-c2ccc(/C=C3\SC(N4CCOCC4)=NC3=O)o2)cc1` yielded hERG current change (%, negative = inhibition) at 10uM of -64.8

Entry under test: `C#CCOCCOCCOCCNc1nc(N2CCN(C(=O)[C@H]([C@@H](C)CC)n3cc([C@@H](N)CC(C)C)nn3)CC2)nc(N2CCN(C(=O)[C@H](CCCCN)n3cc([C@@H](N)CC(C)C)nn3)CC2)n1.Cl` . Its hERG current change (%, negative = inhibition) at 10uM was -10.1

For the 6 compounds below, give their hERG current change (%, negative = inhibition) at 10uM values.
1. COc1ccc(CCN(C)CCC(=O)Nc2ccc(C)cc2)cc1OC.Cl
2. O=C1CSc2ccc(C(=O)Nc3cccc(S(=O)(=O)Nc4ccc(Br)cc4)c3)cc2N1
3. CCN(CC(=O)NCc1ccc(F)cc1)C(=O)c1ccc(C(=O)c2ccccc2)cc1
4. CCN(CC(=O)NCc1ccc(Cl)cc1)C(=O)COc1cccc(Cl)c1
5. CC(C)(C)c1ccc(S(=O)(=O)NCc2ccc(C(=O)NCC3CCCO3)cc2)cc1 (stereo not drawn)
6. O=C(Nc1ccc(Cl)cn1)c1ccc(-c2ccc(Cl)c(Cl)c2)o1

[-64.3, 15, -42.3, -73.5, 13.8, 10.1]

Batch lookup, hERG current change (%, negative = inhibition) at 10uM per entry.
1. CCOc1ncccc1C(=O)N(CC)CC(=O)NCc1ccc(Cl)cc1
2. CCOC(=O)C1(CCOC)CCN(Cc2ccccc2-c2ccco2)CC1

1.69
-22.4

Batch lookup, hERG current change (%, negative = inhibition) at 10uM per entry.
1. CC(C)(C)NC(=O)C(=O)NNC(=O)COc1ccc(Br)cc1
2. CC(C)NC(=O)CSc1nnc(-c2ccc(C(C)(C)C)cc2)n1C
3. CCNc1cc2n(c(=O)n1)CCc1cc(OC)c(OC)cc1-2

1: 5.23; 2: -7.38; 3: -19.5

====

target: human ether-à-go-go-related gene (hERG) potassium channel (human);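 note: peak tail current of the secondary pulse compared with the same well before compound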
assayOverview: primary screen, population patch clamp on CHO cells stably expressing hERG; higher = less effect of the substance
Out of some 310,000 compounds screened, about 14,000 (4.5%) showed an effect of 50% or more. Effects have a minus sign here. The sample as a whole holds a higher share of strong results than the screen did.
So I've got a bunch of compounds here, and I need their hERG current change (%, negative = inhibition) at 10uM values.
Give the number first and the unit second.

Known results for compounds:
Sure, the documented hERG current change (%, negative = inhibition) at 10uM for `O=[N+]([O-])c1ccc(NC2CCN(Cc3ccccc3)CC2)c2ccncc12` is 6.01%

// hERG current change (%, negative = inhibition) at 10uM lookup, compound = CSCCC(NS(=O)(=O)c1ccccc1)C(=O)OCc1cc(=O)oc2cc(O)ccc12 (stereo not drawn) , result: -57.3%

Entry under test: `Cc1ccc(C(=O)c2nocc2C(=O)c2cccs2)cc1` . Its hERG current change (%, negative = inhibition) at 10uM was -19.7%

hERG current change (%, negative = inhibition) at 10uM recorded for this compound, CC1CCC2C(=O)N(c3ccc(NC4CCN(Cc5ccccc5)CC4)c([N+](=O)[O-])c3)C(=O)C2C1 (stereo not drawn) , is -41.2%

Entry `O=[N+]([O-])c1ccccc1NC1CCN(Cc2ccccc2)CC1` , hERG current change (%, negative = inhibition) at 10uM reported as -64.4%

Hi, could you look up hERG current change (%, negative = inhibition) at 10uM for each item in my list?
1. CSCCC(NS(=O)(=O)c1ccccc1)C(=O)OCc1nc2ccsc2c(=O)[nH]1 (stereo not drawn)
2. Cc1ccc(S(=O)(=O)NNC(=O)c2cccs2)c(C)c1

["2.87%", "14.4%"]

// for each compound below, give its hERG current change (%, negative = inhibition) at 10uM
1. CC(C)[C@H](NC(=O)OCc1ccccc1)C(=O)OCc1cc(=O)oc2cc(O)ccc12
2. NC(=O)c1ccccc1NC(=O)CN1CCN(Cc2ccccc2)CC1

-46.7%
-78.3%

====

target: human ether-à-go-go-related gene (hERG) potassium channel (human, UniProt Q12809);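 note: peak tail current of the secondary pulse compared with the same well before compound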
Sequence (Q12809 whole entry, looked up): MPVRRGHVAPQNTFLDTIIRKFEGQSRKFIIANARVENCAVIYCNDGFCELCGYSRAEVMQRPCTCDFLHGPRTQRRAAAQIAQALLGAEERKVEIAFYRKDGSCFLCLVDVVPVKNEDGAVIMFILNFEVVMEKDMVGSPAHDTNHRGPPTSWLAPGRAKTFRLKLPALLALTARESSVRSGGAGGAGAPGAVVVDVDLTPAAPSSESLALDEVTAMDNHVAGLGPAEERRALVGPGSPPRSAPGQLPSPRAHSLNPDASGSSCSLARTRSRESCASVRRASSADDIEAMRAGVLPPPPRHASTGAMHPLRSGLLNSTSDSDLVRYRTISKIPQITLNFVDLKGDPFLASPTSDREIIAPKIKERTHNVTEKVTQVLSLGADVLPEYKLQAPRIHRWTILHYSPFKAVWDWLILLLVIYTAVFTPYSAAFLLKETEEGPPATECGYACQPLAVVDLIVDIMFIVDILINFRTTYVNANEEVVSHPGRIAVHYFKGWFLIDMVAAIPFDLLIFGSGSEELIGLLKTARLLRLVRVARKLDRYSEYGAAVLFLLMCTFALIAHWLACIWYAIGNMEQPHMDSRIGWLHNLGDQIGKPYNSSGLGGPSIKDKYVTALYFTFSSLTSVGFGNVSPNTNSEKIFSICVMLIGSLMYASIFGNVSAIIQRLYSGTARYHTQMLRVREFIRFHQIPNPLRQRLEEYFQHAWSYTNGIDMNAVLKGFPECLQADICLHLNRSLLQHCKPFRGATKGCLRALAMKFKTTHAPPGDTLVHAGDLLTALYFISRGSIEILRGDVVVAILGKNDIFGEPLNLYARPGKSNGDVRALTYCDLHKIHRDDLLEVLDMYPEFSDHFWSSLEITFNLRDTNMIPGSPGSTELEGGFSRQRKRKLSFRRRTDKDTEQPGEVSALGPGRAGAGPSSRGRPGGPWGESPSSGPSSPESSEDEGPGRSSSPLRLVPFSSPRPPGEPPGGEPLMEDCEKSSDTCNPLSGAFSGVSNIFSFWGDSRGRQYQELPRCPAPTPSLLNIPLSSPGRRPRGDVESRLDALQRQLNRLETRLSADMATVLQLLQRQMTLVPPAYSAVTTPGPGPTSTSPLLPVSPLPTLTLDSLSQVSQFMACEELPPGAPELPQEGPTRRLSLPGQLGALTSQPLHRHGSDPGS
assayOverview: primary screen, population patch clamp on CHO cells stably expressing hERG; higher = less effect of the substance
Among all 310,000 compounds or so, about 14,000 (4.5%) showed an effect of 50% or more. The effect is printed as a negative number. The entries come from a sample that favours strong results as a whole.
Would you kindly list hERG current change (%, negative = inhibition) at 10uM for each of these compounds?
Give bare numbers, in %.

hERG current change (%, negative = inhibition) at 10uM for `NC(=O)C1CCN(C(=O)CCCCCn2c(=O)[nH]c3ccsc3c2=O)CC1` is 0.397

Noted for `O=C(Nc1ccc(C(=O)NCCCN2CCN(c3ccccc3)CC2)cc1)C1=CSCCO1` : its hERG current change (%, negative = inhibition) at 10uM reads -38.2

Consider `CC(C)c1ccc(C(=O)NCCCN2CCN(CCCNC(=O)c3ccc(C(C)C)cc3)CC2)cc1` . Its measured hERG current change (%, negative = inhibition) at 10uM is -84.3

Entry `CCOC(=O)CNC(=O)Nc1ccccc1C(=O)OC` , hERG current change (%, negative = inhibition) at 10uM reported as 15.1

// field: hERG current change (%, negative = inhibition) at 10uM; key: `COC(=O)c1ccccc1NC(=O)c1ccccc1OC` ; value = -23.1

Kindly give each listed record's hERG current change (%, negative = inhibition) at 10uM.
1. Cc1ccc(C(=O)NCCCN2CCOCC2)cc1
2. COc1ccc(C[C@H]2NC[C@H](O)[C@H]2OC(C)=O)cc1
3. O=C(Nc1ccc(C(=O)NCCCN2CCN(c3ccc(F)cc3)CC2)cc1)C1=CSCCO1

[3.81, 5.98, -54]

Batch request: hERG current change (%, negative = inhibition) at 10uM for each of the following compounds.
1. CC(C)(C)c1ccc(C(=O)NCCN2CCOCC2)cc1
2. CSCCC(NC(=O)c1ccccc1Br)C(=O)N1CCN(C(C)=O)CC1 (stereo not shown)

1: 1.01; 2: 8.22

====

target: human ether-à-go-go-related gene (hERG) potassium channel (human, UniProt Q12809);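 note: peak tail current of the secondary pulse compared with the same well before compound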
assayOverview: primary screen, population patch clamp on CHO cells stably expressing hERG; higher = less effect of the substance
Hit rate of the full screen: of about 310,000 compounds, about 14,000 (4.5%) showed an effect of 50% or more. The effect is printed as a negative number. What follows is part of a selection rich in strong results, with near analogues and random picks from the rest.
Give hERG current change (%, negative = inhibition) at 10uM for every item shown.
Give bare numbers, in %.

Here is how some compounds turned out for hERG current change (%, negative = inhibition) at 10uM.
human ether-à-go-go-related gene (hERG) potassium channel (human, UniProt Q12809) assay, compound `COc1ccc(CNC(=O)COc2ccc(S(=O)(=O)N3CCCCC3)cc2)cc1` , recorded hERG current change (%, negative = inhibition) at 10uM = 6.5

Record `CN1Cc2c(N3CCOCC3)nc(SCCC#N)c(C#N)c2CC1(C)C` ; system human ether-à-go-go-related gene (hERG) potassium channel (human, UniProt Q12809); hERG current change (%, negative = inhibition) at 10uM = -2.45

The compound Cc1ncc(CN2CCN(CCC(C)C)C(CCO)C2)s1 (stereo not drawn) , when measured on human ether-à-go-go-related gene (hERG) potassium channel (human, UniProt Q12809), yielded hERG current change (%, negative = inhibition) at 10uM of -20.1

`O=C(NCc1cn2ccsc2n1)c1c(F)cccc1Cl` on human ether-à-go-go-related gene (hERG) potassium channel (human, UniProt Q12809) gives hERG current change (%, negative = inhibition) at 10uM = 7.32

Record `O=C(CSc1nc(Nc2ccccc2)nc(N2CCOCC2)n1)N1CCc2ccccc21` / human ether-à-go-go-related gene (hERG) potassium channel (human, UniProt Q12809), hERG current change (%, negative = inhibition) at 10uM recorded as -1.62

Take each entry in turn and give its hERG current change (%, negative = inhibition) at 10uM.
1. CC(C)(C)OC(=O)N[C@@H](CCCCNC(=O)OCc1ccccc1)c1nnc([C@H](CCCCNC(=O)OCc2ccccc2)NC(=O)OC(C)(C)C)o1
2. Cc1nc2c(C)cccn2c(=O)c1NC(=O)c1ccc(Br)o1

-22.6
5.14
